For each of the molecules below, state its GI50 of drug.
# Tested on: CAKI-1
# Test summary: GI50 of drug in presence of dasatinib; higher = less potent
# Measurement conditions: treatment: drug + dasatinib (fixed dose, not stated); 5 days
Give bare numbers, in nM.

The examples below pair each entry with its known result.
- Molecule: "CC(C)NC[C@@H](C(=O)N1CCN(c2ncnc3c2[C@H](C)C[C@H]3O)CC1)c1ccc(Cl)cc1 [GDC-0068] + Cc1nc(Nc2ncc(C(=O)Nc3c(C)cccc3Cl)s2)cc(N2CCN(CCO)CC2)n1"
  Measured parameter: "GI50 of drug"
  Data value: 1750
- Molecule: "COc1cc2c(N3CCN(C(=O)Nc4ccc(OC(C)C)cc4)CC3)ncnc2cc1OCCCN1CCCCC1 [Tandutinib (MLN518)] + Cc1nc(Nc2ncc(C(=O)Nc3c(C)cccc3Cl)s2)cc(N2CCN(CCO)CC2)n1"
  Measured parameter: "GI50 of drug"
  Data value: 4780
- Molecule: "COc1cc2c(Oc3ccc(NC(=O)C4(C(=O)Nc5ccc(F)cc5)CC4)cc3F)ccnc2cc1OCCCN1CCOCC1 + Cc1nc(Nc2ncc(C(=O)Nc3c(C)cccc3Cl)s2)cc(N2CCN(CCO)CC2)n1"
  Measured parameter: "GI50 of drug"
  Data value: 135

Here's the next entry for you.
Req: Provide only the value of recorded GI50 of drug for CCCS(=O)(=O)Nc1ccc(F)c(C(=O)c2c[nH]c3ncc(Cl)cc23)c1F [PLX-4720] + Cc1nc(Nc2ncc(C(=O)Nc3c(C)cccc3Cl)s2)cc(N2CCN(CCO)CC2)n1
Resp: 1700
